Reference source for all entries: patent US20220064105A1

Experiment: Solubility of Compound I in solvents at room temperature (about 25° C.)
Format: physicochemical
Settings: organic solvent or mixture, thermodynamic from solid, chloroform, read-out: Solubility (estimated)
Quantity measured: solubility

Exercise: What value of solubility has been recorded for this entry: COc1ccc(C(=O)NC2(C(=O)O)Cc3ccccc3C2)cc1OCCc1cccc(C)c1 [Compound I]
Solution: < 2000 µg/mL

---

Test: Estimated hot solubility in solvents at elevated temperature (approximately solvent boiling point)
Format: physicochemical
Settings: 138 °C, organic solvent or mixture, thermodynamic from solid, 1-Pentanol, read-out: Hot Solubility (est)
Quantity measured: solubility

Exercise: Given the molecule COc1ccc(C(=O)NC2(C(=O)O)Cc3ccccc3C2)cc1OCCc1cccc(C)c1 [Compound I] , what is its reported solubility?
Solution: > 10000 µg/mL
